Tested on: 439559-082-T-J2-PDC spheroid viability
assay.method.text: Anticancer human tumor 439559-082-T-J2-PDC patient-derived colon adenocarcinoma cell line growth inhibition [POLQ]
assay.context: second compound 1 µM; first compound 3.16 µM; stronger effect = lower value; spheroids with HUVEC and MSC
Note to self: viability, T/C under 90% means condition met, ties and anything higher get condition not met.

is_below(viability, T/C, 90%) for CCc1cc2c(N3CCc4c(cc(Cn5ccnc5)cc4-c4cn(C)nc4C(F)(F)F)C3=O)ccnc2c(OC)n1 + Cc1cccc(N(C)C(=O)C2C(O)CCN2c2nc(C)cc(C(F)(F)F)c2C#N)c1 ?
condition not met

is_below(viability, T/C, 90%) for COc1ccc([C@@H](O)c2cc(-c3ncnc4cc(N5CCOCC5)ccc34)c(F)cc2Cl)nn1 + Nc1ccc(C#CCN(C(=O)Cc2ncc(C(F)(F)F)cc2C(F)(F)F)c2ccc(F)cc2)nn1 ?
condition met

is_below(viability, T/C, 90%) for CC1COCCN1c1cc(-c2ccnn2C)c2ccnc(-c3ccn[nH]3)c2n1 (stereo not given) + COC1C(OC(N)=O)C(O)C(Oc2ccc3c(O)c(NC(=O)c4ccc(O)c(CC=C(C)C)c4)c(=O)oc3c2C)OC1(C)C ?
condition met

is_below(viability, T/C, 90%) for O=c1[nH]cc(F)c(=O)[nH]1 + Nc1ccc(C#CCN(C(=O)Cc2ncc(C(F)(F)F)cc2C(F)(F)F)c2ccc(F)cc2)nn1 ?
condition met

is_below(viability, T/C, 90%) for COc1cc(C2c3cc4c(cc3C(OC3OC5COC(C)OC5C(O)C3O)C3COC(=O)C23)OCO4)cc(OC)c1O (stereo not given) + COC1C(OC(N)=O)C(O)C(Oc2ccc3c(O)c(NC(=O)c4ccc(O)c(CC=C(C)C)c4)c(=O)oc3c2C)OC1(C)C ?
condition met

is_below(viability, T/C, 90%) for CNCc1ccc(-c2[nH]c3cc(F)cc4c3c2CCNC4=O)cc1 + Nc1ccc(C#CCN(C(=O)Cc2ncc(C(F)(F)F)cc2C(F)(F)F)c2ccc(F)cc2)nn1 ?
condition not met

is_below(viability, T/C, 90%) for CCc1cc2c(N3CCc4c(cc(Cn5ccnc5)cc4-c4cn(C)nc4C(F)(F)F)C3=O)ccnc2c(OC)n1 + COC1C(OC(N)=O)C(O)C(Oc2ccc3c(O)c(NC(=O)c4ccc(O)c(CC=C(C)C)c4)c(=O)oc3c2C)OC1(C)C ?
condition not met

is_below(viability, T/C, 90%) for O=C(c1cc(Cc2n[nH]c(=O)c3ccccc23)ccc1F)N1CCN(C(=O)C2CC2)CC1 + Nc1ccc(C#CCN(C(=O)Cc2ncc(C(F)(F)F)cc2C(F)(F)F)c2ccc(F)cc2)nn1 ?
condition met

is_below(viability, T/C, 90%) for CCc1cc2c(N3CCc4c(cc(Cn5ccnc5)cc4-c4cn(C)nc4C(F)(F)F)C3=O)cc(C)nc2c(OC)n1 + COC1C(OC(N)=O)C(O)C(Oc2ccc3c(O)c(NC(=O)c4ccc(O)c(CC=C(C)C)c4)c(=O)oc3c2C)OC1(C)C ?
condition not met

is_below(viability, T/C, 90%) for CCCS(=O)(=O)Nc1ccc(F)c(C(=O)c2c[nH]c3ncc(-c4ccc(Cl)cc4)cc23)c1F + COC1C(OC(N)=O)C(O)C(Oc2ccc3c(O)c(NC(=O)c4ccc(O)c(CC=C(C)C)c4)c(=O)oc3c2C)OC1(C)C ?
condition not met

====

Test system: 439559-082-T-J2-PDC spheroid viability
assay.method.text: Anticancer human tumor 439559-082-T-J2-PDC cell line growth inhibition [POLQ];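 further: spheroids exposed to compounds for seven days before readout; 100% = DMSO vehicle control viability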
assay.context: second compound 0.0316 µM; first compound 1 µM; stronger effect = lower value; spheroids with HUVEC and MSC
property.measured: viability, T/C (%)
The reply should contain only the number, in %.

Quick one: viability, T/C for Nc1ccn(C2OC(CO)C(O)C2(F)F)c(=O)n1 (stereo not drawn) + COC1C(OC(N)=O)C(O)C(Oc2ccc3c(O)c(NC(=O)c4ccc(O)c(CC=C(C)C)c4)c(=O)oc3c2C)OC1(C)C ?
39.5

Quick one: viability, T/C for COc1cc(C2c3cc4c(cc3C(OC3OC5COC(C)OC5C(O)C3O)C3COC(=O)C23)OCO4)cc(OC)c1O (stereo not drawn) + COC1C(OC(N)=O)C(O)C(Oc2ccc3c(O)c(NC(=O)c4ccc(O)c(CC=C(C)C)c4)c(=O)oc3c2C)OC1(C)C ?
98

Quick one: viability, T/C for COc1cccc2c1C(=O)c1c(O)c3c(c(O)c1C2=O)CC(O)(C(=O)CO)CC3OC1CC(N)C(O)C(C)O1 (stereo not drawn) + COC1C(OC(N)=O)C(O)C(Oc2ccc3c(O)c(NC(=O)c4ccc(O)c(CC=C(C)C)c4)c(=O)oc3c2C)OC1(C)C ?
70

====

System: 439559-082-T-J2-PDC spheroid viability
assay.method.text: Anticancer human tumor 439559-082-T-J2-PDC cell line growth inhibition [POLQ];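 further: spheroids exposed to compounds for seven days before readout; 100% = DMSO vehicle control viability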
assay.context: second compound 0.1 µM; first compound 0.316 µM; stronger effect = lower value; spheroids with HUVEC and MSC
Method: Multicellular complex tumor spheroid response to Polymerase (POL) inhibitors (novobiocin, ART-558, RP6685) in combination with a variety of drugs and investigational agents in selected tumor cell lines The POL inhibitors (novobiocin, ART-558, and RP6685) were evaluated both individually and in combination with standard of care and investigational anticancer small molecules within a complex spheroid model of solid tumors. . […]
Would you kindly list viability, T/C for each of these compounds?
The reply should contain only the number, in %.

Lab request: please report viability, T/C under test system 439559-082-T-J2-PDC spheroid viability for CC1COCCN1c1cc(-c2ccnn2C)c2ccnc(-c3ccn[nH]3)c2n1 (stereo not given) + Nc1ccc(C#CCN(C(=O)Cc2ncc(C(F)(F)F)cc2C(F)(F)F)c2ccc(F)cc2)nn1
57.5

Lab request: please report viability, T/C under test system 439559-082-T-J2-PDC spheroid viability for O=c1[nH]cc(F)c(=O)[nH]1 + Cc1cccc(N(C)C(=O)C2C(O)CCN2c2nc(C)cc(C(F)(F)F)c2C#N)c1
80.8

Lab request: please report viability, T/C under test system 439559-082-T-J2-PDC spheroid viability for CCCS(=O)(=O)Nc1ccc(F)c(C(=O)c2c[nH]c3ncc(-c4ccc(Cl)cc4)cc23)c1F + Nc1ccc(C#CCN(C(=O)Cc2ncc(C(F)(F)F)cc2C(F)(F)F)c2ccc(F)cc2)nn1
92.4

Lab request: please report viability, T/C under test system 439559-082-T-J2-PDC spheroid viability for CCCS(=O)(=O)Nc1ccc(F)c(C(=O)c2c[nH]c3ncc(-c4ccc(Cl)cc4)cc23)c1F + COC1C(OC(N)=O)C(O)C(Oc2ccc3c(O)c(NC(=O)c4ccc(O)c(CC=C(C)C)c4)c(=O)oc3c2C)OC1(C)C
99.9

Lab request: please report viability, T/C under test system 439559-082-T-J2-PDC spheroid viability for O=C(c1cc(Cc2n[nH]c(=O)c3ccccc23)ccc1F)N1CCN(C(=O)C2CC2)CC1 + COC1C(OC(N)=O)C(O)C(Oc2ccc3c(O)c(NC(=O)c4ccc(O)c(CC=C(C)C)c4)c(=O)oc3c2C)OC1(C)C
100

====

Tested on: 439559-082-T-J2-PDC spheroid viability
assay.method.text: Anticancer human tumor 439559-082-T-J2-PDC cell line growth inhibition [POLQ];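 further: spheroids exposed to compounds for seven days before readout; 100% = DMSO vehicle control viability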
assay.context: second compound 1 µM; first compound 3.16 µM; stronger effect = lower value; spheroids with HUVEC and MSC
Would you kindly list viability, T/C for each of these compounds?
The reply should contain only the number, in %.

Lab request: please report viability, T/C under test system 439559-082-T-J2-PDC spheroid viability for CC(C)n1c(=O)n(C)c2cnc3cc(F)c(-c4ccc(OCCCN5CCCCC5)nc4)cc3c21 + Cc1cccc(N(C)C(=O)C2C(O)CCN2c2nc(C)cc(C(F)(F)F)c2C#N)c1
108

Lab request: please report viability, T/C under test system 439559-082-T-J2-PDC spheroid viability for CCc1cc2c(N3CCc4c(cc(Cn5ccnc5)cc4-c4cn(C)nc4C(F)(F)F)C3=O)ccnc2c(OC)n1 + Nc1ccc(C#CCN(C(=O)Cc2ncc(C(F)(F)F)cc2C(F)(F)F)c2ccc(F)cc2)nn1
95.1

Lab request: please report viability, T/C under test system 439559-082-T-J2-PDC spheroid viability for C=CC(=O)N1CCN(c2nc(=O)n(-c3c(C)ccnc3C(C)C)c3nc(-c4c(O)cccc4F)c(F)cc23)C(C)C1 (stereo not given) + Nc1ccc(C#CCN(C(=O)Cc2ncc(C(F)(F)F)cc2C(F)(F)F)c2ccc(F)cc2)nn1
123

Lab request: please report viability, T/C under test system 439559-082-T-J2-PDC spheroid viability for COc1cccc2c1C(=O)c1c(O)c3c(c(O)c1C2=O)CC(O)(C(=O)CO)CC3OC1CC(N)C(O)C(C)O1 (stereo not given) + Cc1cccc(N(C)C(=O)C2C(O)CCN2c2nc(C)cc(C(F)(F)F)c2C#N)c1
62.8

Lab request: please report viability, T/C under test system 439559-082-T-J2-PDC spheroid viability for C=CC(=O)N1CCN(c2nc(=O)n(-c3c(C)ccnc3C(C)C)c3nc(-c4c(O)cccc4F)c(F)cc23)C(C)C1 (stereo not given) + Cc1cccc(N(C)C(=O)C2C(O)CCN2c2nc(C)cc(C(F)(F)F)c2C#N)c1
96
